target or system: hERG channel (Homo sapiens)
Construct: expressed in transfected cells; host or cells: CHO
Sequence (Q12809 whole entry): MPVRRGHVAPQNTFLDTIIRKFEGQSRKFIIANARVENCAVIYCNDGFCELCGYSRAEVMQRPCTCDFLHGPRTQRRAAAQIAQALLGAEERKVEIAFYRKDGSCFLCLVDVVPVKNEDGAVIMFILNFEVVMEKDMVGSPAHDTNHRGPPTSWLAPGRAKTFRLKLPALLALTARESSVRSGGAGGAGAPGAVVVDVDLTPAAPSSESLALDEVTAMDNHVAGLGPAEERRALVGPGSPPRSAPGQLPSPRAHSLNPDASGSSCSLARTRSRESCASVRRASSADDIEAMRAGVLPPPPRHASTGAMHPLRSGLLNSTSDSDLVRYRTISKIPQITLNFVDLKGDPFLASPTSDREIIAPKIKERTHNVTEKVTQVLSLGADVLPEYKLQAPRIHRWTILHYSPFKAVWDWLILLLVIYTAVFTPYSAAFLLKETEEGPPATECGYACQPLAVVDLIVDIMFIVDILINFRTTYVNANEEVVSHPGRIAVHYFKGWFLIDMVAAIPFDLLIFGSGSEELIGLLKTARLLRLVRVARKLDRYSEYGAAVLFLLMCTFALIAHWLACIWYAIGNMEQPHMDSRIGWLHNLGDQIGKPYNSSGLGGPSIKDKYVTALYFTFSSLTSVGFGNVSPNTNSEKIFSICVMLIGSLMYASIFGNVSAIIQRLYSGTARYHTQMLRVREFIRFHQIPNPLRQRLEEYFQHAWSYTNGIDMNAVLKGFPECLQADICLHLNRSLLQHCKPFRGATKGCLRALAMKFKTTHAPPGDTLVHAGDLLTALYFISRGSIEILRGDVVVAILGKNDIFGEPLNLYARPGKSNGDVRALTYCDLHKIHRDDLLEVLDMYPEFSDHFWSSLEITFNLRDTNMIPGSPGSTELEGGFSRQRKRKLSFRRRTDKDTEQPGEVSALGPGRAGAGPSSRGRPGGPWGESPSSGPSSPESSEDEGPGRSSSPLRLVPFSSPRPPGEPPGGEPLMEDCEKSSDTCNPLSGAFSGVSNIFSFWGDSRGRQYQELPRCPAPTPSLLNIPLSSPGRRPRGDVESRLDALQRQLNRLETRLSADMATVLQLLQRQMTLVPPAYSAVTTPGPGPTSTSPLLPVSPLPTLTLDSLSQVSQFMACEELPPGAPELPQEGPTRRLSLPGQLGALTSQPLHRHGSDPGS
assay protocol: hERG channel inhibition assay (Qpatch whole-cell recording, CHO cells expressing hERG)
Assay type: cell-based
assay context: ratio of IC50 values; read-out: relative selectivity hERG/ TRPC5
property: selectivity ratio

Qu. Answer with reported selectivity ratio of Cn1c(=O)n(CCCO)c(=O)c2c1nc(C1(F)CCC(C(F)(F)F)CC1)n2Cc1ccc(F)c(F)c1 (stereo not shown)
Ans. > 30800

---

assay protocol: Liver microsome stability test, human
assay context: Human liver microsomes; metabolic bioavailability
Classification field: Y = MF % at or over 70%; N = MF % under 70%.

Some solved cases for reference:
* Cn1c(=O)n(CCCO)c(=O)c2c1nc(C1(F)CCC(F)(F)CC1)n2Cc1ccc(F)cc1 | N
* Cn1c(=O)n(CCCO)c(=O)c2c1nc(C1(F)CCC(F)(F)CC1)n2Cc1ccc(F)cc1F | Y

Qu. Does the compound Cn1c(=O)n(CCCO)c(=O)c2c1nc(C1(F)CCC(C(F)(F)F)CC1)n2Cc1ccccc1 (stereo not shown) have recorded MF % that is 70% or more?
Ans. Y

Qu. Does the compound Cn1c(=O)n(CCCO)c(=O)c2c1nc(C1(F)CCC(F)(F)CC1)n2Cc1ccc(F)c(Cl)c1 have recorded MF % that is 70% or more?
Ans. N

Qu. Does the compound Cn1c(=O)n(CCCO)c(=O)c2c1nc(C1(F)CCC(F)(F)CC1)n2Cc1ccc(Cl)cc1 have recorded MF % that is 70% or more?
Ans. N

Qu. Does the compound Cn1c(=O)n(CCCO)c(=O)c2c1nc(C1(F)CCC(F)(F)CC1)n2Cc1cc(F)cc(F)c1 have recorded MF % that is 70% or more?
Ans. Y

Qu. Does the compound Cn1c(=O)n(CCCO)c(=O)c2c1nc(C1(F)CCC(F)(F)CC1)n2Cc1ccc(C#N)cc1 have recorded MF % that is 70% or more?
Ans. N
